Consider the following pIC50 values measured on Cholinesterase (Homo sapiens, UniProt P06276).
Sequence (P06276 whole entry): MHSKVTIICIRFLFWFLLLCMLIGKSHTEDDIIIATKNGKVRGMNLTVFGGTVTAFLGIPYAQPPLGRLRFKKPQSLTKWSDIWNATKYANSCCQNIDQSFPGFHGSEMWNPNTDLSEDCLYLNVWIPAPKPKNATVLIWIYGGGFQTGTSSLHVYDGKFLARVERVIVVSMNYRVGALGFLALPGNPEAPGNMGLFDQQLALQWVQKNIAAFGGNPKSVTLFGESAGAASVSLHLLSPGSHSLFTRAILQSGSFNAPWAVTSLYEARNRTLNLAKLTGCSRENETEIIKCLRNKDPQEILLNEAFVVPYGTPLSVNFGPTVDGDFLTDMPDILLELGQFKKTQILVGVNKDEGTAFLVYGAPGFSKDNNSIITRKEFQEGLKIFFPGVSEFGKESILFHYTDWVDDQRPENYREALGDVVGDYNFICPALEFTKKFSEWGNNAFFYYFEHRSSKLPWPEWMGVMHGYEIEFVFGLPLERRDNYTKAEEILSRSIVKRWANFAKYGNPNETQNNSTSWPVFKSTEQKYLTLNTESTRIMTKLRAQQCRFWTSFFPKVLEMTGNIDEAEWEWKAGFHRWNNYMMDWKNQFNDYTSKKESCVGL
pIC50: −log10 of the molar value.

COMPOUND SMILES: CCOC(=O)/C=C/c1ccc(OCCCCCCN2CCCCC2)c(OC)c1
pIC50: 4.38
--
COMPOUND SMILES: COc1cc(/C=C/C(=O)Nc2ccccc2)ccc1OCCCCCCN1CCCCC1
pIC50: 4.89
--
COMPOUND SMILES: CCN(CC)CCCCCCOc1ccc(/C=C/C(=O)Nc2ccccc2)cc1OC
pIC50: 5.31
--
COMPOUND SMILES: COc1cc(/C=C/C(=O)Nc2ccccc2)ccc1OCCCN1CCCC1
pIC50: 4.85
--
COMPOUND SMILES: COc1cc(/C=C/C(=O)Nc2ccccc2)ccc1OCCCCN(C)C
pIC50: 4.59
--
COMPOUND SMILES: COc1cc(/C=C/C(=O)Nc2ccccc2)ccc1OCCCCCN1CCCC1
pIC50: 5.32
--
COMPOUND SMILES: CCOC(=O)/C=C/c1ccc(OCCCCCCN(CC)CC)c(OC)c1
pIC50: 4.94
--
COMPOUND SMILES: COc1cc(/C=C/C(=O)Nc2ccccc2)ccc1OCCCCCCCCN1CCCCC1
pIC50: 5.26
--
COMPOUND SMILES: COc1cc(/C=C/C(=O)O)ccc1OCCCCCCN1CCCC1
pIC50: 3.54
--
COMPOUND SMILES: COc1cc(/C=C/C(=O)Nc2ccccc2)ccc1OCCN(C)C
pIC50: 4.63
--
COMPOUND SMILES: CCOC(=O)/C=C/c1ccc(OCCCCCCN2CCCC2)c(OC)c1
pIC50: 3.42
